Reported pIC50 values are given for each entry in this list.
Target: Platelet-derived growth factor receptor beta (Homo sapiens, UniProt P09619)
Sequence (P09619 whole entry): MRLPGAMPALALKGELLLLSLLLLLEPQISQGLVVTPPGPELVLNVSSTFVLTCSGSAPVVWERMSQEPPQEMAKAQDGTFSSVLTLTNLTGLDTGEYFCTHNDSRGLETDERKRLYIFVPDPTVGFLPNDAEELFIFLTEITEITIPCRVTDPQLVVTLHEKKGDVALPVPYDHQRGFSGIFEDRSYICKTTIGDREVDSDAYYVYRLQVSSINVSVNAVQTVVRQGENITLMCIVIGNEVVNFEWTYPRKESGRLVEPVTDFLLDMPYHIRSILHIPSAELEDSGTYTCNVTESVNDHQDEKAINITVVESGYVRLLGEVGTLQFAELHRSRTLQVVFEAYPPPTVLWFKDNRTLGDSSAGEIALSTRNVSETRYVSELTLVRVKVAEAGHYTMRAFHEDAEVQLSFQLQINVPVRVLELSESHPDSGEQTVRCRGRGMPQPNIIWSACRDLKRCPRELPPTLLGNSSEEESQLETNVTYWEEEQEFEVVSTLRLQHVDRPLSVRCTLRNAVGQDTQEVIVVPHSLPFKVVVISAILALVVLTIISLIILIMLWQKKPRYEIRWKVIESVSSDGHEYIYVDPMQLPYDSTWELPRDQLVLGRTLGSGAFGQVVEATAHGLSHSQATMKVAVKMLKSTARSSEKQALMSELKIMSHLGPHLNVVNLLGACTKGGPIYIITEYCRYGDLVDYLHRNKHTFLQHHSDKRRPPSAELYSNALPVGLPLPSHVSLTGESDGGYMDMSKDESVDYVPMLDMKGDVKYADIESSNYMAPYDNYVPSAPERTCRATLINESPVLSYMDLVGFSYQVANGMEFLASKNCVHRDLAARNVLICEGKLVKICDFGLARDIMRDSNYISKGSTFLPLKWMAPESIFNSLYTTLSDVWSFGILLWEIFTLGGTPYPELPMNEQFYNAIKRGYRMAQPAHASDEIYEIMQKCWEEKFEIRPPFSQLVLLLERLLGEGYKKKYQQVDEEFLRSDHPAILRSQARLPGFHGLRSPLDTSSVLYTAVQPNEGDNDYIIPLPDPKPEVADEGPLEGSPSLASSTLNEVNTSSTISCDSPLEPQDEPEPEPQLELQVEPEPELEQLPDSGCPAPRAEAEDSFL
Notebook: values listed as pIC50 are -log10 of the concentration (mol/L).

In [3]: df
Out[3]:
               structure_smiles_string  parameter_measured  obs_value
0  COc1ccc(Sc2sc3nc(N)nc(N)c3c2C)cc1OC               pIC50       5.55

Next:
Task: Specify reported pIC50 for the compound shown: COc1cccc(Sc2sc3nc(N)nc(N)c3c2C)c1
Output: 4.39

====

Here, each record is paired with measured IC50 data.
Molecular target: Vascular endothelial growth factor receptor 1 (Homo sapiens)
Sequence (P17948 whole entry): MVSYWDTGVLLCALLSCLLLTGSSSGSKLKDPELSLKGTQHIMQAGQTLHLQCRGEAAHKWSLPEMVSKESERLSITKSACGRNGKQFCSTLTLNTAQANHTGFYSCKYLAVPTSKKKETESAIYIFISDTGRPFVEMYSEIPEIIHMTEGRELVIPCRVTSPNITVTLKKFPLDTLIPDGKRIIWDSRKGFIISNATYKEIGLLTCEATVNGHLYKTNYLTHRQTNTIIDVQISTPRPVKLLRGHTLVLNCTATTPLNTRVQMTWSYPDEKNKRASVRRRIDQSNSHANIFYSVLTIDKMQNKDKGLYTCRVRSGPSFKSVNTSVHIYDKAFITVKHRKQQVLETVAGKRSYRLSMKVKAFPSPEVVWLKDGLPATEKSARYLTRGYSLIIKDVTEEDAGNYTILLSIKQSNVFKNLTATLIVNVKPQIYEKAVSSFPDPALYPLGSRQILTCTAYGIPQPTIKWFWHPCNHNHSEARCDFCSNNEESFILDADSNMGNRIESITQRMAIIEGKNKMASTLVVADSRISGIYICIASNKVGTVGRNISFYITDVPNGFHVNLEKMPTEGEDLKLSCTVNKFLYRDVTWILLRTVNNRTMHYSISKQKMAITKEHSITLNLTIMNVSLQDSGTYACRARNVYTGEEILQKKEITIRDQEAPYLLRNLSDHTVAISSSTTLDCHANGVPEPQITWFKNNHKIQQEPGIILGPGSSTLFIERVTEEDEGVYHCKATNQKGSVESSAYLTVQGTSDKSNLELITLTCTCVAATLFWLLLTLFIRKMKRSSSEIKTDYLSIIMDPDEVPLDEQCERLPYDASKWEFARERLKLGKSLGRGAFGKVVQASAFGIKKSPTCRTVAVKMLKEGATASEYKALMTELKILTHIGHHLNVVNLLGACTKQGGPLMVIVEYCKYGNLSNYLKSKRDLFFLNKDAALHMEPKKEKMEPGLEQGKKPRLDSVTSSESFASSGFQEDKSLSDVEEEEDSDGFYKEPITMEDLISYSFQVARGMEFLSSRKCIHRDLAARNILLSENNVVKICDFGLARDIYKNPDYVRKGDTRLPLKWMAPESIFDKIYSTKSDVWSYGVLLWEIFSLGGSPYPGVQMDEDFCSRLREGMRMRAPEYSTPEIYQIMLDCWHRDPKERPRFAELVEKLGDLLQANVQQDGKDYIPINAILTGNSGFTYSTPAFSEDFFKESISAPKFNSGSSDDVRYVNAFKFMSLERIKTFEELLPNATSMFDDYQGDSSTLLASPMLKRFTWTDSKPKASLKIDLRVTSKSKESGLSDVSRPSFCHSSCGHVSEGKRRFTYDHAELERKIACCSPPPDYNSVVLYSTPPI
Please reply with the bare figure in µM and do not write the unit itself.

             structure_smiles_string  parameter_measured  obs_value
0  COc1cccc(Sc2sc3nc(N)nc(N)c3c2C)c1                IC50        160

Task: Specify IC50 for COc1ccc(Sc2sc3nc(N)nc(N)c3c2C)cc1OC and stop.
Output: 118
